Reported pIC50 values for the following molecules.
Target: Signal transducer and activator of transcription 3 (Mus musculus)
Sequence (P42227 whole entry): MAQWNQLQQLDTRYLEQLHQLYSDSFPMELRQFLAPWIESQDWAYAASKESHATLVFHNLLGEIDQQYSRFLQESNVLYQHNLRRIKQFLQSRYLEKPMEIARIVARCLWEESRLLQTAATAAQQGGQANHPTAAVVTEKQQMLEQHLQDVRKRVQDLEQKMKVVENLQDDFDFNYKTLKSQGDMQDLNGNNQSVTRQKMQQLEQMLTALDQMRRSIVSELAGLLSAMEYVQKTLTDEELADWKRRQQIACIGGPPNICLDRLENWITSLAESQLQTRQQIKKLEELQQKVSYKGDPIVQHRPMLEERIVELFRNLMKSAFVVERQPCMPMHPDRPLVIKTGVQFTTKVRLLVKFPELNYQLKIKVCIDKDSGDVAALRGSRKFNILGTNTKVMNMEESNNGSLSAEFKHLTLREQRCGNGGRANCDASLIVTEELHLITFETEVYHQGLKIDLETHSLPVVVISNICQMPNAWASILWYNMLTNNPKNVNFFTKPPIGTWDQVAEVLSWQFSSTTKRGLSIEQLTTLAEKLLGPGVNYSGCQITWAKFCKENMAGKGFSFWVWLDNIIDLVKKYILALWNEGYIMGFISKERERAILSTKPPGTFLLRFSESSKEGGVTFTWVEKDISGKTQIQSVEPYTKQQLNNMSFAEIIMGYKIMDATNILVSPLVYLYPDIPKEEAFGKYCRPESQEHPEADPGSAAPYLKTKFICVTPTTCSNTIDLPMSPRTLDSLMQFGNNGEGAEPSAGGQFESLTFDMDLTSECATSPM
Assay: Inhibition of STAT3 dimerization in v-Src transformed mouse NIH/3T3 cells overexpressing human EGFR assessed as suppression of STAT3-DNA interaction in nucleus after 30 mins by EMSA
Remember the convention: pIC50 equals -log10 of concentration in molar.

Sample records with pIC50:
COc1cccc(NC(=O)c2nc(-c3ccccc3)sc2Cc2ccc(OP(=O)(O)O)cc2)c1    4.55
CCCCCCNC(=O)c1nc(-c2cccc3ccccc23)sc1Cc1ccc(OP(=O)(O)O)cc1    4.60
CCCCCCNC(=O)c1nc(-c2cccc3ccccc23)oc1Cc1ccc(OP(=O)(O)O)cc1    4.24
O=C(Nc1ccc(C2CCCCC2)cc1)c1nc(-c2ccccc2)oc1Cc1ccc(OP(=O)(O)O)cc1    4.48

Next, consider the following molecule.
# input Which pIC50 reading was recorded for the molecule `COc1cccc(NC(=O)c2nc(-c3ccccc3)oc2Cc2ccc(OP(=O)(O)O)cc2)c1` ?
# output 4.05
